conditions: in ethyl acetate, 293.15 K
recorded.metric: solubility (mole fraction)
Hey, just send me the number, nothing else.

// solubility (mole fraction) lookup, compound = OC/C=C/c1ccccc1 , result: 0.659

* * *

settings: in n-propanol, 268.15 K
recorded.metric: solubility (mole fraction)
Please respond with just the number, no unit label.

Recorded result, OC/C=C/c1ccccc1 , solubility (mole fraction): 0.313

* * *

settings: in ethanol, 268.15 K
recorded.metric: solubility (mole fraction)
Keep the answer to the number alone.

For reference, reported solubility (mole fraction) for OC/C=C/c1ccccc1 stands at 0.342

* * *

conditions: in acetone, 303.15 K
recorded.metric: solubility (mole fraction)
Answer as a number with no unit attached.

// solubility (mole fraction) value for O=C(O)c1ccccc1O : 0.196

These measurements were taken from BigSolDB 2.1.
